Value source: ChEMBL document CHEMBL1201862

tested on: LOX IMVI; assay: NCI tumour cell line growth inhibition, 48 h
Activity calls are given as the source filed them. No stated cut-off is given here; in the data, active = GI50 up to about 1.1 µM and inactive = higher.
Could you please pick one outcome from this set? active, inactive

[in] Kindly provide the recorded test outcome for the following molecule: NC(=S)N/N=C(\CCC(=O)Nc1ccccc1[N+](=O)[O-])CC(=O)c1ccco1
[out] inactive

[in] Another molecule to check: NCCSc1nc(N)c2ncn(C3OC(CO)C(O)C3O)c2n1 (centres undefined)
[out] inactive

[in] Another molecule to check: CCOC(=O)CCC(NC(=O)C(N)Cc1ccc(N(CCCl)CCCl)cc1)C(=O)OCC (centres undefined)
[out] active

[in] Another molecule to check: CC(C)(CCl)NC(=O)c1cccc(C(=O)NC(C)(C)CCl)n1
[out] inactive

[in] Another molecule to check: CC(C)(C)OC(=O)N1CCCC1C(=O)NC(c1ccccc1)c1ccccc1 (centres undefined)
[out] inactive

[in] Another molecule to check: COC(=O)CCC12CCC(O1)c1ccccc12 (centres undefined)
[out] inactive

[in] Another molecule to check: CCOC(=O)/C=C/C1OC(C)(C)OC1/C=C/C(=O)OCC (centres undefined)
[out] inactive

[in] Another molecule to check: CSCC[C@@H]1C(=O)N(C)[C@H](C(C)(C)C)N1C(=O)c1ccccc1
[out] inactive

[in] Another molecule to check: COc1ccc(NC(=O)C(=O)C(CC2C(=O)NC(=S)NC2=O)C(=O)c2ccc3ccccc3c2)c([N+](=O)[O-])c1 (centres undefined)
[out] inactive

[in] Another molecule to check: CC(C)(C)OC(=O)N1C(C2=COc3ccccc3O2)=COc2cccnc21
[out] inactive

[in] Another molecule to check: COc1ccc(C23OCC(Cc4cc(OC)c(OC)cc42)C3COC(C)=O)cc1OC (centres undefined)
[out] inactive

[in] Another molecule to check: COc1ccc(/C=C\c2cc(OC)c3c(c2)OCO3)c(O)c1O
[out] inactive

[in] Another molecule to check: CC(=O)NNc1nc(C)c(C(/C=C/c2ccc(NC(C)=O)cc2)=N/NS(=O)(=O)c2ccc(C)cc2)s1
[out] inactive

[in] Another molecule to check: O=C1C(Cl)=C(N2CCN(C3=C(Cl)C(=O)c4ccccc4C3=O)CC2)C(=O)c2ccccc21
[out] inactive

[in] Another molecule to check: C=O.NNCCc1n[nH]c(=O)n1N
[out] inactive

[in] Another molecule to check: Cc1ccc(/N=N/c2c(C)nn(-c3ccccc3)c2C)c(Br)c1
[out] inactive

[in] Another molecule to check: CCC1CN2CCc3c([nH]c4ccccc34)C2C[C@@H]1CC(=O)N(C)C (some centres undefined)
[out] inactive

[in] Another molecule to check: C1COC(NC(C2CC2)C2CC2)=N1 [RILMENIDINE]
[out] inactive

[in] Another molecule to check: CCOC1=C/C(=N\Nc2ccc([N+](=O)[O-])cc2)CCC1
[out] inactive

* * *

system: OVCAR-8; experiment: NCI tumour cell line growth inhibition, 48 h
Activity calls are given as the source filed them. Rule as the data show it: active = GI50 up to about 1.1 µM and inactive = higher. Bridge positions count the residues as written; N and C are the ends. Square brackets hold non-standard residues; d marks the D form. Peptide text beside a SMILES is read from it. I, II: the chains in the order shown. * marks the point of attachment. Quinoxaline2carbonyl = O=C(c1cnc2ccccc2n1)*; NMeV = CN[CH](C(=O)O)C(C)C; NMeC = CN[CH](CS)C(=O)O
measuredMetric: GI50

[in] For the compound shown here, COCCOCCOC1=C(Cl)C(=O)c2c(O)ccc(O)c2C1=O , give the reported GI50.
[out] 2.21 µM (inactive)

[in] Another compound to check: CC1(C)C(OC(=O)c2ccccc2)C[C@]23CCC[C@](C)(C[C@@H](O)C12)C3 (some centres undefined)
[out] 16.7 µM (inactive)

[in] Another compound to check: C#CCN(N=O)C(=O)NC(CCCCNC(=O)OCc1ccccc1)C(=O)OCc1ccccc1 (centres undefined)
[out] 17.4 µM (inactive)

[in] Another compound to check: CN1CC=C(c2c(N)nc(N)[nH]c2=O)CC1
[out] > 100 µM (inactive)

[in] Another compound to check: Cc1ccc(C(=O)N(C(C)C)C(C)C)cc1/N=N/N(C)C
[out] > 100 µM (inactive)

[in] Another compound to check: CC(C)c1cccc2sc(NC(=O)C(=O)C(C#N)c3cccc4ccccc34)nc12 (centres undefined)
[out] 72.1 µM (inactive)

[in] Another compound to check: Cc1ccc([S+]([O-])C[C@@]2(C(F)F)NC(=O)NC2=O)cc1 (some centres undefined)
[out] > 100 µM (inactive)

[in] Another compound to check: Cc1cc(=O)oc2cc(OC(=O)Nc3ccccc3)ccc12
[out] 53.3 µM (inactive)

[in] Another compound to check: CN(c1ccccc1)c1c(Cl)c(=O)oc2c1ccc1occc12
[out] > 100 µM (inactive)

[in] Another compound to check: COc1ccc(C(=O)OCC2OC(n3cnc4c(=S)nc[nH]c43)C(OC(=O)c3ccc(OC)cc3)C2OC(=O)c2ccc(OC)cc2)cc1 (centres undefined)
[out] 28.5 µM (inactive)

[in] Another compound to check: CCCCCCCCCCCCCCCCc1c(O)nc(NC#N)nc1C(=O)OC
[out] > 25 µM (inactive)

[in] Another compound to check: CC1NC(=O)C(NC(=O)c2cnc3ccccc3n2)COC(=O)C(C(C)C)N(C)C(=O)C2CSSCC(C(=O)N(C)C(C(C)C)C(=O)OCC(NC(=O)c3cnc4ccccc4n3)C(=O)NC(C)C(=O)N2C)N(C)C1=O (centres undefined) (I: Quinoxaline2carbonyl-SA[NMeC][NMeV] / II: Quinoxaline2carbonyl-SA[NMeC][NMeV]; ester I:1-II:C, I:C-II:1; disulfide I:3-II:3; configuration not given here)
[out] < 0.01 µM (active)

[in] Another compound to check: CCCCCCCC(=O)OC[C@@H](C[As](=O)(O)O)OC(=O)CCCCCCC
[out] 13.5 µM (inactive)

[in] Another compound to check: COc1cc(C)c2c(c1C=O)Oc1c(c(C)c(O)c3c1C(O)OC3=O)OC2=O (centres undefined)
[out] 31.4 µM (inactive)

[in] Another compound to check: COc1ccc(/C(C=O)=C(\Cl)c2ccc(OC)c(OC)c2)cc1
[out] 75.5 µM (inactive)

[in] Another compound to check: COC(=O)C1(C)OC(C)=NC1(C(=O)OC)C(=O)OC (centres undefined)
[out] > 100 µM (inactive)

[in] Another compound to check: CC1=CCC2(C#N)CCC1C2O (centres undefined)
[out] > 100 µM (inactive)

[in] Another compound to check: CCC1=C(C(C)=O)[C@@H]2CCCCC[C@@H](C(=O)OC)C2C1=O (some centres undefined)
[out] > 100 µM (inactive)

[in] Another compound to check: COc1ccc(C(=O)Oc2c(C#N)sc3c2c(=O)n(-c2ccccc2)c(=S)n3-c2ccccc2)cc1
[out] 24.7 µM (inactive)

* * *

system: NCI-H522; test: NCI tumour cell line growth inhibition, 48 h
Calls of active or inactive are those of the source. Cut-off read from the data, not from the text of the source: active = GI50 up to about 1.1 µM and inactive = higher.
Could you please pick one outcome from this set? Yes = active, No = inactive

[in] Kindly provide the recorded test outcome for the following molecule: Cc1cc(C(O)CCCc2ccccc2)cc(C)c1O (stereo not drawn)
[out] No

[in] Another molecule to check: C/C(=C\CNc1ncnc2[nH]c(Cl)nc12)CO
[out] No

[in] Another molecule to check: Clc1ccc(/C=N/C23CC4CC(CC(C4)C2)C3)cc1Cl
[out] No

[in] Another molecule to check: CN(NC(=O)c1ccc(Cl)cc1)C1=NCCCCN1
[out] No

[in] Another molecule to check: C1=CN2C[n+]3ccc4ccccc4c3N=C2c2ccccc21
[out] Yes

[in] Another molecule to check: CCOC(=O)C(CC(C)C)NC(=O)C(Cc1ccc(N(CCCl)CCCl)cc1)NC(C)=O (stereo not drawn)
[out] No

[in] Another molecule to check: O=C(O)CNC(=O)c1ccc2cc(C(=O)N3CC(CCl)c4ccc([N+](=O)[O-])cc43)[nH]c2c1 (stereo not drawn)
[out] No

[in] Another molecule to check: Brc1ccc(C2(N3CCCCC3)CCCCC2)s1
[out] No

[in] Another molecule to check: COc1ccc(-n2c(=O)n(C)c(=O)n2-c2c(C)c(C)c(C)c(C)c2C)cc1
[out] No

[in] Another molecule to check: O=C(CN(C(=O)OC12CC3CC(CC(C3)C1)C2)C(=O)OC12CC3CC(CC(C3)C1)C2)Oc1ccc([N+](=O)[O-])cc1
[out] No

[in] Another molecule to check: COC(=O)c1cc(C#N)[nH]c1-c1cc(Br)cs1
[out] No

[in] Another molecule to check: O=C1NC(c2ccccc2)C1N(Cc1ccccc1)Cc1ccccc1 (stereo not drawn)
[out] No

[in] Another molecule to check: CCCCC#CS(=O)(=O)C(F)(F)F
[out] No

[in] Another molecule to check: CC(=O)OC12/C(=N/O)CCCCCC1c1ccccc12 (stereo not drawn)
[out] No

[in] Another molecule to check: CC(=C(C(N)=O)C(N)=O)C1C=C(c2cccs2)CC(c2ccc(Cl)cc2)=C1O (stereo not drawn)
[out] No

[in] Another molecule to check: O=C(NCCCCCCNC(=O)c1cccc2ccccc12)Nc1cccc2ccccc12
[out] No

[in] Another molecule to check: C/C=C/OC1C(C2COC(C)(C)O2)OC2OC(C)(C)OC21 (stereo not drawn)
[out] No

[in] Another molecule to check: COCCOCCOCCOc1ccc(C(C#N)N(CCc2ccccc2)C(=O)c2cc(C(=O)N(CCc3ccccc3)C(C#N)c3ccc(OCCOCCOCCOC)cc3)cc(C(=O)N(CCc3ccccc3)C(C#N)c3ccc(OCCOCCOCCOC)cc3)c2)cc1 (stereo not drawn)
[out] No

[in] Another molecule to check: O=C1Nc2ccccc2/C1=N/Nc1ccc([N+](=O)[O-])cc1
[out] No

[in] Another molecule to check: NC(Cc1ccc(O)c(O)c1)P(=O)(O)O (stereo not drawn)
[out] No

[in] Another molecule to check: CC(=O)N1C=Cc2c(c(C)c3c([nH]c4ccccc43)c2C)C1
[out] No

[in] Another molecule to check: N#CC(Nc1cccc(C(F)(F)F)c1)c1ccccc1C(F)(F)F (stereo not drawn)
[out] No

[in] Another molecule to check: CCOC(=O)c1ccc(O)cc1 [ETHYLPARABEN]
[out] No

[in] Another molecule to check: NC(=O)Cc1nc2c(N)ncnc2n1C1OC(CO)C(O)C1O (stereo not drawn)
[out] No

[in] Another molecule to check: O=C1/C(=C/c2ccc(Cl)cc2)N=C(c2ccccc2)N1/N=C/c1ccccc1O
[out] No

[in] Another molecule to check: CC1=CC(=O)c2ccccc2C1=O [MENADIONE]
[out] No

[in] Another molecule to check: O=C(/C=C/c1c(O)ccc2ccccc12)c1cccc2ccccc12
[out] No

[in] Another molecule to check: ClC1CCC2OOC1O2 (stereo not drawn)
[out] No

[in] Another molecule to check: COc1ccc(C(=O)OCC2OC(n3cnc4c(=S)nc[nH]c43)C(OC(=O)c3ccc(OC)cc3)C2OC(=O)c2ccc(OC)cc2)cc1 (stereo not drawn)
[out] No

[in] Another molecule to check: O=C1CCc2ccccc2O1 [DIHYDROCOUMARIN]
[out] No

[in] Another molecule to check: CC(=O)OCCOCCN1CCN(C2=C(Cl)C(=O)c3c(O)ccc(O)c3C2=O)CC1
[out] Yes

[in] Another molecule to check: c1csc(-c2cc(-c3ccsc3)c(-c3ccsc3)s2)c1
[out] No

[in] Another molecule to check: Cc1ccc(SC(CCC(Sc2ccc(C)cc2)Sc2ccc(C)cc2)Sc2ccc(C)cc2)cc1
[out] No

[in] Another molecule to check: COc1ccc(/C=C\c2cc(OC)c3c(c2)OCO3)c(O)c1O
[out] No

[in] Another molecule to check: COC(=O)c1nc(-c2ccc3c(n2)C(=O)C(=N)C(OC)=C3O)c(N)c(-c2ccc(OC)c(OC)c2O)c1C
[out] Yes

[in] Another molecule to check: CC1=C(C(=O)Nc2cccc(Cl)c2)C(c2ccccc2F)C(C(=O)Nc2cccc(Cl)c2)=C(C)N1
[out] No

[in] Another molecule to check: CC1(C)CC(=O)C2=C(C1)c1c(ccc3ccccc13)NC2c1cn(Cc2ccc(Cl)cc2)c2ccccc12 (stereo not drawn)
[out] No

[in] Another molecule to check: CCCCON1C[C@@H](O)C(O)[C@@H](O)C1 (stereo partly drawn)
[out] No

[in] Another molecule to check: Nc1ccc(C2=N/C(=C\c3cccc(N)c3)C(=O)O2)cc1
[out] No

[in] Another molecule to check: CCOC(=O)N1Cc2ccoc2C1
[out] No

[in] Another molecule to check: CC(=O)/C(=N\N=C(N)N)c1ccccc1
[out] No

[in] Another molecule to check: COCCOCOC(CCCCO)c1cc(C)c(O[Si](C)(C)C(C)(C)C)c(C)c1 (stereo not drawn)
[out] No

[in] Another molecule to check: COc1ccc(CCn2cnc3ccccc32)cc1
[out] No
